System: MDA-MB-435
Assay: NCI tumour cell line growth inhibition, 48 h
measurement kind: TGI

{"columns": ["cpd smiles", "reading"],
 "data": [
  ["CCOP(=O)(OCC)C(C)(C)N(C)/C(F)=N/C(F)(F)F", "> 100 µM"],
  ["O=C1NC(=S)N/C1=C\\c1cc2c(=O)c3ccccc3sc2s1", "> 100 µM"],
  ["CCc1c(CN)c(CC)c(CNC2=NCCN2)c(CC)c1CNC1=NCCN1", "> 100 µM"]
]}

====

Test system: SF-539 CNS
Experiment: NCI tumour cell line growth inhibition, 48 h; in the data active means GI50 below about 0.43 µM; inactive means the rest
Outcomes: active, inactive

{"columns": ["compound", "class"],
 "data": [
  ["Cc1cccc(-c2[nH]ncc2-c2ccc3ncccc3n2)n1", "inactive"],
  ["CCOC(=O)C1=C(C)N=c2s/c(=C\\c3ccccc3O)c(=O)n2C1c1ccc(OC)c2ccccc12 (stereo unspecified)", "inactive"],
  ["C=C(C)[C@@H]1CC[C@]2(COCCC#N)CC[C@]3(C)[C@H](CC[C@@H]4[C@@](C)(CCCNCCC#N)[C@H](C(=C)C)CC[C@]43C)[C@@H]12", "inactive"],
  ["CCOC(=O)c1ccc(Nc2sc(C(=O)c3ccc(Br)cc3)c(N)c2C#N)cc1", "inactive"],
  ["OC(c1cc(-c2cccc(Cl)c2)nc2ccccc12)C1CCCCN1 (stereo unspecified)", "inactive"],
  ["NC1=CC(=O)c2cccnc2C1=O", "inactive"],
  ["CO/C=C/C(=O)c1cc2cnc3c(=N)cc(NC(=O)C(C)C)c([nH]1)c23", "active"],
  ["COc1cc2nccc(Oc3ccc(NC(=O)NC4CC4)c(Cl)c3)c2cc1C(N)=O", "inactive"],
  ["CSC1=Nc2c(c(C)c(-c3ccccc3)n2CCCN2CCCCC2)C2=NC(=O)C[C@H](C)N12", "inactive"],
  ["O=C(/C=C/c1ccco1)c1cc(F)c(Cl)cc1Cl", "inactive"],
  ["COc1cc(/C=C2\\C[C@H]3[C@@H]4CC=C5C[C@@H](O)CC[C@]5(C)[C@H]4CC[C@]3(C)[C@H]2O)ccc1OCCN1CCCC1", "inactive"]
]}

====

Tested on: CAKI-1 renal
Assay: NCI tumour cell line growth inhibition, 48 h; in the data active = GI50 below about 0.43 µM; inactive = the rest
Outcome codes: t for active, f for inactive

{"columns": ["molecule", "target system", "class"],
 "data": [
  ["C[n+]1c(/C=C/c2c[nH]c3ccccc23)ccc2ccccc21", "CAKI-1 renal", "f"],
  ["CCC(CC)c1nc(Nc2ccc(C(=O)OC)cc2)c2ccccc2n1", "CAKI-1 renal", "f"],
  ["c1ccc([CH2][Sn]([CH2]c2ccccc2)([O]c2cccc3cccnc23)[O]c2cccc3cccnc23)cc1", "CAKI-1 renal", "f"],
  ["CCOC(=O)c1ccccc1OC(=O)NNc1ccccc1", "CAKI-1 renal", "t"],
  ["Nc1c(C(=O)c2ccc(-c3cccnc3)cc2)cnn1-c1ccc(F)cc1", "CAKI-1 renal", "f"],
  ["NCCCNc1nc2ccccc2c2c(=O)c3cc(F)cc(F)c3sc12", "CAKI-1 renal", "f"],
  ["CN(C)c1ccc(/C=C/c2ccnc3c(O)cccc23)cc1", "CAKI-1 renal", "t"],
  ["Cc1cccc(-c2[nH]ncc2-c2ccc3ncccc3n2)n1", "CAKI-1 renal", "f"],
  ["C=C(C)C(=O)O[C@H]1CC2=C[C@@H](C[C@@]3(C)O[C@@H]3[C@H]3OC(=O)C(=C)[C@@H]31)OC2=O", "CAKI-1 renal", "f"],
  ["C=CCC(N[C@@H](CO)c1ccccc1)c1cn(Cc2ccccc2Cl)c(=O)n(Cc2ccccc2Cl)c1=O (stereo not given in full)", "CAKI-1 renal", "f"],
  ["CC(C)(C)N1CCC1CN (stereo not given)", "CAKI-1 renal", "f"],
  ["COc1ccc2sc3cccc(NCCN(C)C)c3c(=O)c2c1", "CAKI-1 renal", "f"],
  ["O=C(COc1ccc(/C=C2\\COc3ccccc3C2=O)cc1)Nc1nccs1", "CAKI-1 renal", "f"],
  ["COc1ccc(N=Cc2c(O)ccc3c2oc2cc(Cl)c(O)c(Cl)c23)cc1", "CAKI-1 renal", "f"],
  ["COC1=CC(c2ccc[nH]2)=N/C1=C\\c1[nH]c(C)c(CC(=O)OCc2ccccc2)c1CCC(=O)OCc1ccccc1", "CAKI-1 renal", "t"]
]}
